- System: Mus musculus
- PROTOCOL SUMMARY: Antagonist activity at mesolimbic dopaminergic D2 receptor in Swiss albino Mus musculus (mouse) assessed as inhibition of apomorphine-induced cage climbing behavior at 10 mg/kg, ip administered 1 hr prior to apomorphine challenge measured after 30 min relative to vehicle-treated control
- Format: functional
- TEST SETTINGS: route intraperitoneal
EXPERIMENTAL ENDPOINT: inhibition in vivo at 10 mg/kg (%)
The answer is to be given in %; state only the numeric part.

>>> endpoint_value("CNc1nc(-c2ccc(CCN3CCN(c4nc5ccccc5nc4Cl)CC3)cc2)cs1")
80

I have this compound here, COc1nc2ccccc2nc1N1CCN(CCc2ccc(-c3csc(O)n3)cc2)CC1 , and I need its recorded inhibition in vivo at 10 mg/kg.
60

I have this compound here, COc1nc2ccccc2nc1N1CCN(CCc2ccc(-c3csc(N)n3)cc2)CC1 , and I need its recorded inhibition in vivo at 10 mg/kg.
65

I have this compound here, CNc1nc(-c2ccc(CCN3CCN(c4cnc5ccccc5n4)CC3)cc2)c(C)s1 , and I need its recorded inhibition in vivo at 10 mg/kg.
65

I have this compound here, COc1nc2ccccc2nc1N1CCN(CCc2ccc(-c3csc(C)n3)cc2)CC1 , and I need its recorded inhibition in vivo at 10 mg/kg.
65

I have this compound here, Oc1nc(-c2ccc(CCN3CCN(c4cnc5ccccc5n4)CC3)cc2)cs1 , and I need its recorded inhibition in vivo at 10 mg/kg.
65

I have this compound here, COc1nc2ccccc2nc1N1CCN(CCc2ccc(-c3nc(C)sc3C)cc2)CC1 , and I need its recorded inhibition in vivo at 10 mg/kg.
65

I have this compound here, Nc1nc(-c2ccc(CCN3CCN(c4nc5ccccc5nc4Cl)CC3)cc2)cs1 , and I need its recorded inhibition in vivo at 10 mg/kg.
70

I have this compound here, Cc1sc(N)nc1-c1ccc(CCN2CCN(c3nc4ccccc4nc3Cl)CC2)cc1 , and I need its recorded inhibition in vivo at 10 mg/kg.
65

Cited source: ChEMBL document CHEMBL3044879
